- Test system: NCI-H23 lung
- assay_notes: NCI tumour cell line growth inhibition, 48 h
Param threshold (40 µM) applies to TGI; output met when value >= threshold, not met when value < threshold.

Field: example entries. Status: answers known.
molecule	experimental_system	classification
COC(=O)c1c2c(c(C)[n+]([O-])c1C)C(=O)C(NCc1ccc(F)c(F)c1)=CC2=O	NCI-H23 lung	not met
C/C(=C\COP(=O)(O)OP(=O)(O)O)CC/C=C(\C)CNc1ccc([N+](=O)[O-])cc1	NCI-H23 lung	met
COc1ccc(CCN(C)C(=O)CC(C#N)(c2ccccc2)c2ccc(OC)c(OC)c2)cc1OC (stereo unspecified)	NCI-H23 lung	met

Can N#CC1=C(N2CCOCC2)CCC1 be said to have TGI at or above 40 µM?
met

Dear colleague, could you confirm whether CCCCCCCCCCCCCCCCOCCCOP(=O)(O)C1CCCN(O)C1=O (stereo unspecified) has TGI at or above 40 µM?
not met

Textbook exercise: given the entry Cc1cc2nc3c(C#N)c(-c4ccccc4)cc(Nc4ccc(F)cc4)n3c2cc1C , state whether its TGI is greater than or equal to 40 µM.
met

Please tell me: is the molecule C(/C=N/NC1=NCCCN1)=N\NC1=NCCCN1 at or over 40 µM in terms of TGI?
met

# bool: TGI of O=C1NC(Cc2c[nH]c3ccccc23)C(=O)N2C(c3ccccc3)c3[nH]c4ccccc4c3C[C@@H]12 (stereo partly specified) >= 40 µM
met

Form field: TGI at least 40 µM? Entry: O=S1(=O)OCCCOS(=O)(=O)C1Br
met

# check: TGI of CNC(=S)NNC1=NCCCCN1 is greater than or equal to 40 µM
met

Form field: TGI at least 40 µM? Entry: C[C@H](CCC1=NCCN1)[C@H]1CC[C@H]2[C@@H]3CC[C@@H]4C[C@H](O)CC[C@]4(C)[C@H]3CC[C@]12C
not met

---

- Test system: HL-60(TB) leukemia
- assay_notes: NCI tumour cell line growth inhibition, 48 h
measurement_label: TGI (µM)
# unit: µM | format: bare number

Answered examples (2):
compound	experimental_value
C/C(=C\c1c[nH]c2ccccc12)[N+](=O)[O-]	6.46
O=C1c2ccccc2C(=O)c2c(O)c(O)cc(O)c21	56.5

Please report the recorded TGI for CCCCCCCCCC(=O)OCC1OC(n2cc(F)c(=O)[nH]c2=O)C(N)C(OC(=O)CCCCCCCCC)C1O (stereo unspecified) .
55.1

GET /values?readout=TGI&item= O=C(CC1(O)C(=O)Nc2c(Cl)cc(Cl)cc21)c1ccc2ccccc2c1 (stereo unspecified)
14.6

Reported TGI, compound CC(C)=CCC[C@@H](C)C1=C(Nc2ccccc2)C(O)=C(C)C(=O)C1=O : ____
1.35

---

- Test system: COLO 205 colon
- assay_notes: NCI tumour cell line growth inhibition, 48 h
Below is a list of entries, each paired with its recorded TGI value.

Worked examples follow.
compound	experimental_system	TGI
COc1ccc(NC(C)=O)cc1N1C(=O)/C(=C\c2cc(OC)c(OC)c(OC)c2)S(=O)(=O)C1c1ccccc1 (centres undefined)	COLO 205 colon	> 100 µM
COc1cc([C@H]2Oc3cc(O)c4c(=O)cc(-c5ccc(O)cc5)oc4c3O[C@@H]2CO)ccc1O	COLO 205 colon	31.7 µM
CCN(CC)c1ccc2c(c1)N=C1N=CC=CN1C2(c1ccc(N(C)C)cc1)c1ccc(N(C)C)cc1	COLO 205 colon	6.53 µM
Cc1ccc(NC(=O)c2ccnc(N3CCCC3)c2)cc1-c1ccc(C(=O)NCC2CC2)cc1	COLO 205 colon	> 25 µM

Fill blank: measured TGI of the compound Cc1nc2ccc(N=NN(C)C)cc2[nH]1 is ____.
> 100 µM

# get_value(readout='TGI', item= COc1cc2c(cc1OC)[C@@]1(C)C(=O)c3cc4c(cc3[C@H]1N(C)C2=O)OCO4 )
> 100 µM

---

- Test system: MOLT-4 leukemia
- assay_notes: NCI tumour cell line growth inhibition, 48 h
measurement_label: TGI

Worked examples, 5 compounds total:
compound	measurement_label	experimental_value
O=C(NN1C(=O)c2ccccc2C1=O)c1ccccc1Nc1ccccc1C(=O)NN1C(=O)c2ccccc2C1=O	TGI	> 100 µM
Cc1ncc([N+](=O)[O-])n1CCNC(=O)CCn1ccnc1[N+](=O)[O-]	TGI	> 100 µM
O=C(O)/C(Cl)=C(\Cl)C(=O)Nc1ccccc1	TGI	> 100 µM
O=C(/C=C\Sc1nccc(C(F)(F)F)n1)c1ccc(Br)cc1	TGI	16.2 µM
Cc1ccnc2nc3[nH]c4ccccc4c3cc12	TGI	> 100 µM

Please give the measured TGI for this compound: COc1cc(CCCC(O)COc2cccc3c2C2(O)CCCCCC32)cc(OC)c1 (stereo unspecified)
48.2 µM

Look up TGI: CN(C)CC1CCn2c(c(C3=C(c4cn(C)c5ccccc45)C(=O)NC3=O)c3ccccc32)C1 (stereo unspecified)
13.9 µM

For the compound shown here, COC(=O)N/N=C(\C)C(CN1CCOCC1)C(c1ccccc1)c1cc2ccccc2oc1=O (stereo unspecified) , give the reported TGI.
> 100 µM

Quick check: TGI of O=C(CC(=O)C(F)(F)F)c1csc2ccccc12 ?
72.3 µM

TGI lookup needed for Cn1cc(C2=C(c3c4n(c5ccccc35)CCC(CN)CC4)C(=O)NC2=O)c2ccccc21 (stereo unspecified) , thanks.
13.3 µM

For the compound CN(CCO)c1nc2c(c(=O)[nH]1)CNCC2 , what TGI is on record?
> 100 µM

Please look up its TGI: CCCCCNC1=CC(=O)c2ccccc2C1=O
> 100 µM

---

- Test system: SNB-75 CNS
- assay_notes: NCI tumour cell line growth inhibition, 48 h
measurement_label: TGI

Reference set (4 entries):
compound	experimental_value
Cc1ccc(C2=NO[C@@H]3C(=O)N(c4ccc(Cc5ccc(N6C(=O)[C@H]7C(c8ccc(C)cc8)=NO[C@H]7C6=O)cc5)cc4)C(=O)[C@H]23)cc1	> 100 µM
C(/C=N/NC1=NCCCN1)=N\NC1=NCCCN1	> 100 µM
NC(=O)NC(=O)c1ccc(NC(=O)CBr)cc1	4.19 µM
COc1ccc(/C=C/[N+](=O)[O-])cc1	> 100 µM

Item Cc1nc2ccc(N=NN(C)C)cc2[nH]1 has what recorded TGI?
> 100 µM

Give its TGI value. Item: O=C(O)CNCc1c2ccccc2[n+]([O-])c2ccccc12
> 100 µM

What value of TGI has been reported for the following compound? N#CC1=C(N2CCOCC2)CCC1
> 100 µM

Name the recorded TGI for COC(=O)/C(C#N)=C(\Nc1ccccc1)N1CCCCC1 .
> 100 µM

Report TGI for O=C(Cn1ccnc1[N+](=O)[O-])NCC(F)(F)C(F)(F)F please.
> 100 µM

Bench note: what TGI did C[C@@H]1OC2(O)[C@@H]3CCCN3C(=O)N(Cc3ccccc3)N2C1=O (stereo not given in full) show?
88.7 µM

// returns reported TGI for input CN1CCN(Cc2ccc(NC(=O)c3cncc(C#Cc4c(N)ncc5cc(F)ccc45)c3)cc2C(F)(F)F)CC1
7.84 µM

Entry COC(=O)[C@]12CSC[C@H]1C[C@H](c1ccc(N(C)C)cc1)N2 : reported TGI = ?
> 100 µM

Which TGI value is on record for O=C1/C(=C/c2ccccc2)CCCC/C1=C\c1ccccc1 ?
> 100 µM

Return reported TGI; argument: CCOC(=O)Oc1cc2c(ccn2C)c2c1c1ccccc1n2C(=O)OCC
> 100 µM

Can you share its TGI? I mean this compound: COc1ccc(-c2cc(-c3ccco3)c(C#N)c(=S)n2C2OC(CO)C(O)C(O)C2O)cc1 (stereo not given)
> 100 µM

Record request: TGI value, item COc1cccc2c1c1nc3cc(C)c(C)cc3nc1n2CCN(C)C
5.56 µM

Record request: TGI value, item CCO/C(O)=C(/C(=N)N1CCCC1)C(=O)Nc1ccc(Cl)cc1
> 100 µM

---

Measured TGI, listed per entry.
- Tested on: IGROV1 ovarian
- assay_notes: NCI tumour cell line growth inhibition, 48 h

# annotated cases, reported TGI shown
compound	TGI
O=C(/C=C/c1ccccc1)CCC1C(=O)NC(=O)NC1=O	> 100 µM
CN1CCN(Cc2ccc(Nc3ncc(Cl)c(Nc4ccccc4S(=O)(=O)N(C)C)n3)cc2)CC1	1.63 µM
COC(=O)c1nc2c3c(cccc3c1C(=O)OC)Nc1ccccc1-2	> 100 µM

For the compound shown here, CCCCc1ccc(N2C(=O)c3cccnc3S2(=O)=O)cc1 , give the reported TGI.
> 100 µM

Entry COC(=O)N/N=C(\C)C(CN1CCOCC1)C(c1ccccc1)c1cc2ccccc2oc1=O (stereo unspecified) has what TGI?
> 100 µM

Which TGI is listed for CC1C(=O)N(C)C2(CO)C(=O)O[C@H](C)C12O (stereo partly specified) ?
> 100 µM

Source of measurements: PubChem BioAssay (NCI)
